System: CCRIS mutagenicity, Ames/micronucleus/aberration tests
Assay: CCRIS mutagenicity studies
Settings: Test System: MOUSE LYMPHOMA; Strain/Indicator: L5178Y (TK+/TK-); Metabolic Activation: NONE; Method: SUSPENSION/PLATE
Activity calls are given as the source filed them. The rule behind the calls is not given here.
Mark one answer only. Choices: active, inactive

Consider the following illustrative entries.
Per the assay record, what outcome was assigned to `CCCCC/C=C/C=C/C=O` ?
inactive

Per the assay record, what outcome was assigned to `O=C(O)c1ccccn1` ?
active

Per the assay record, what outcome was assigned to `O=C([O-])/C=C/C(=O)[O-].[Fe+2]` ?
active

Per the assay record, what outcome was assigned to `C/C=C/c1ccc(O)c(OC)c1` ?
active

Per the assay record, what outcome was assigned to `C[Si](C)(C)N[Si](C)(C)C` ?
inactive

Per the assay record, what outcome was assigned to `O=C1C=CC(=O)N1` ?
active

Per the assay record, what outcome was assigned to `Clc1nnc(Cl)c2ccccc12` ?
active

Per the assay record, what outcome was assigned to `C[Si](C)(C)O[Si](C)(C)O[Si](C)(C)C` ?
active

Per the assay record, what outcome was assigned to `OCc1c[nH]c2ccccc12` ?
active

Per the assay record, what outcome was assigned to `Cc1ccc(S(=O)(=O)NN)cc1` ?
active

Could you now consider this next molecule?
Per the assay record, what outcome was assigned to `Cc1cc(-c2ccc(N=Nc3cc(S(=O)(=O)O)c4ccccc4c3N)c(C)c2)ccc1N=Nc1cc(S(=O)(=O)O)c2ccccc2c1N` ?
inactive

All figures here come from PubChem BioAssay AID1259407.
